Measured values drawn from PubChem BioAssay (NCI) for this set.

- Test system: A549/ATCC NSCLC
- PROCEDURE_SUMMARY: NCI-60 one-dose screen, 48 h (100 = growth as untreated, 0 = no growth, -100 = all killed)
- TEST_CONDITIONS: 10 µM unless noted
The panel holds about 83,000 compounds, 20% with a hit somewhere; the sample as a whole holds those more often.
Recorded growth determines the group label, using group A = under 30%, group B = from 30% up to 90%, group C = 90% and over

COc1cc2c(c(OC)c1OC)C(=O)CC(c1cccc(NC(=O)c3cc(N)ccc3Cl)c1)O2 (configuration not stated) ... group B

Exercise: Place this compound in its band: COc1cccc(/C=C/C(=O)c2ccc(OC)c(S(N)(=O)=O)c2)c1
Key: group A

Exercise: Band of COc1ccc(C(=O)/C=C/c2ccc(Oc3nc(Nc4ccc(F)cc4)nc(N(C)C)n3)c(OC)c2)cc1 ?
Key: group B

Exercise: Class (by measured growth) for CN1CCN(c2ccc(C(=O)/C=C/c3cc(C(F)(F)F)cc(C(F)(F)F)c3)cc2)CC1
Key: group A

Exercise: Bin this entry: COc1cc(/C=C2\C(=N)N=C(SCc3nc4ccccc4[nH]3)NC2=O)ccc1O
Key: group C

Exercise: GET /class?item= Cc1sc2c(c1C)C(c1ccc(Cl)cc1)=N[C@@H](CC(=O)NCCCCCNC(=O)COc1ccc(C3CCC(=O)NC3=O)cc1)c1nnc(C)n1-2 (some centres not stated)
Key: group A

Exercise: Class (by measured growth) for O=C(/C=C/c1ccc(O)c(O)c1)NC1CCOC1O (configuration not stated)
Key: group C
